Listed next: entries and their corresponding Vmax (SERCA2a ATPase activity).
target: SERCA2a (Canis lupus familiaris, UniProt O46674); construct: pre-incubated with 2 μg of microsomes; from tissue; host or cells: dog heart left ventricle, SR microsomes; experiment: SERCA2a ATPase activity in heart-derived SR microsomes from normal dog; assay type: biochemical; conditions: compound 10 nM; mean ± SD
Sequence (O46674 whole entry): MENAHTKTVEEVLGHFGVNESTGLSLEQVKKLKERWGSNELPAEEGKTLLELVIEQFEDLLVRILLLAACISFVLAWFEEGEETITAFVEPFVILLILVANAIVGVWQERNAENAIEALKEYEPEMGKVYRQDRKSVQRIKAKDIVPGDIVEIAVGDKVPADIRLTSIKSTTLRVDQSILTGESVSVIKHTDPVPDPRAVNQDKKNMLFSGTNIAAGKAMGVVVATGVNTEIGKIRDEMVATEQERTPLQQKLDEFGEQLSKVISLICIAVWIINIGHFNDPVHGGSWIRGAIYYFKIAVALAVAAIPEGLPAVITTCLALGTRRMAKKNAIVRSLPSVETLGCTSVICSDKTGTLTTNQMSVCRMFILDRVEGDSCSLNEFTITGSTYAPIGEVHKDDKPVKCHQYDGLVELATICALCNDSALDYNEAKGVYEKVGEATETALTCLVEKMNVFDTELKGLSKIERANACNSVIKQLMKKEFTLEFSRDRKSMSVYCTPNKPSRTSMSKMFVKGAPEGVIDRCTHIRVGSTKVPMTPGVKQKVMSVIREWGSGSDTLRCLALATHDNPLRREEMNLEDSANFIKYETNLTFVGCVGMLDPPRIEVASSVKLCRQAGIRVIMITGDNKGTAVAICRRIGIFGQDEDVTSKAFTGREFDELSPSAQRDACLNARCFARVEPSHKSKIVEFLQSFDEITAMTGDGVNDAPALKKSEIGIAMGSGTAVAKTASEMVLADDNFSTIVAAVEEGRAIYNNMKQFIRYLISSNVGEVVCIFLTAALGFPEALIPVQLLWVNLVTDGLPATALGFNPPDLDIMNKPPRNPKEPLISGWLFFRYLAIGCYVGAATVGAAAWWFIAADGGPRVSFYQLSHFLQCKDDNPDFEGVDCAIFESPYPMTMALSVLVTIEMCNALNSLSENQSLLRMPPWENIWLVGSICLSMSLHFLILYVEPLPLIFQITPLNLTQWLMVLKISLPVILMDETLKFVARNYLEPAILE
measurement.name: Vmax (SERCA2a ATPase activity)

>>> df
                                   molecule                           reported_value
0  C[C@]12CC[C@H](O)C[C@H]1CCC1C2CC[C@]2(C)[C@@H](c3cc[nH]n3)CC[C@]12O (stereo partly shown)   2.569 ± 0.278 (n = 7) μmol/min/mg prot
1  C[C@]12CC[C@H](O)C[C@H]1CCC1C2CC[C@]2(C)[C@@H](c3cc(CCCN)on3)CC[C@]12O (stereo partly shown)   2.508 ± 0.339 (n = 3) μmol/min/mg prot
2  C[C@]12CC[C@H](O)C[C@H]1CCC1C2CC[C@]2(C)[C@@H](c3csc(N=C(N)N)n3)CC[C@]12O (stereo partly shown)  2.660 ± 0.232 (n = 12) μmol/min/mg prot
3  C[C@]12[C@H](O)CC3C(CC[C@@H]4C[C@@H](O)CC[C@]34C)[C@@]1(O)CC[C@@H]2c1c[nH]cn1 (stereo partly shown)   1.551 ± 0.275 (n = 4) μmol/min/mg prot

Where do the numbers come from? From patent US11730746B2.
